Listed compounds paired with reported residual activity
target: MAPK14 (human) (UniProt Q16539); assay: radiometric filter-binding kinase assay, Kinase HotSpot; conditions: compound 0.5 µM; ATP 10 µM
Sequence (Q16539 whole entry, looked up): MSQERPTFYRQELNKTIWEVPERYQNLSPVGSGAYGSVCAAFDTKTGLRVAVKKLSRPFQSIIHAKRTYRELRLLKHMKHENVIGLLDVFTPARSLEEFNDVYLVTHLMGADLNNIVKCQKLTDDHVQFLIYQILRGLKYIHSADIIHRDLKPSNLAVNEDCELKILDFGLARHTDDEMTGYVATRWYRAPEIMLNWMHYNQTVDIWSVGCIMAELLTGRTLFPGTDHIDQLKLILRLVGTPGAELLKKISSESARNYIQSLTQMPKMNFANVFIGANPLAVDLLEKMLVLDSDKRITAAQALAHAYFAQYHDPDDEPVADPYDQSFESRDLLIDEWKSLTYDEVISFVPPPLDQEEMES
metric_name: residual activity (%)

smiles_notation | metric_name | readout_number
COc1cc(Nc2c(C#N)cnc3cc(OCCCN4CCN(C)CC4)c(OC)cc23)c(Cl)cc1Cl | residual activity | 88.6
c1ccc2c(-c3ccncc3)c[nH]c2c1 | residual activity | 104
CS(=O)(=O)CCNCc1ccc(-c2ccc3ncnc(Nc4ccc(OCc5cccc(F)c5)c(Cl)c4)c3c2)o1 | residual activity | 101
Ic1cccc(CSc2nnc(-c3ccncc3)o2)c1 | residual activity | 99.3
O=C1NC(=O)c2c1c1c3ccccc3[nH]c1n1cncc21 | residual activity | 101
CN(C)CCCn1cc(C2=C(c3c[nH]c4ccccc34)C(=O)NC2=O)c2ccccc21 | residual activity | 90.7
COc1ccc(Cl)cc1NC(=O)Nc1cc(C)nc2ccccc12 | residual activity | 98.5
COc1cc2ncnc(Nc3ccc(Oc4ccccc4)cc3)c2cc1OC | residual activity | 103
CO[C@@H]1[C@H](N(C)C(=O)c2ccccc2)C[C@H]2O[C@]1(C)n1c3ccccc3c3c4c(c5c6ccccc6n2c5c31)C(=O)NC4 | residual activity | 93.7
O=C1C(Cl)=C(N2C(=O)CCC2=O)C(=O)c2ccccc21 | residual activity | 88.1
N#Cc1c[nH]c2c[nH]/c(=N\Cc3cccnc3)cc2/c1=N\c1ccc(F)c(Cl)c1 | residual activity | 115
O=C(c1cc2cc(O)ccc2[nH]1)c1cc2cc(O)ccc2[nH]1 | residual activity | 103
C[C@@H]1CCN(C(=O)CC#N)C[C@@H]1N(C)c1ncnc2[nH]ccc12 | residual activity | 93.4
CN(C)c1ccc(/C=C2\C(=O)Nc3ccccc32)cc1 | residual activity | 92.4
N#C/C(=C\c1ccc(O)c(O)c1)C(=O)NCc1ccccc1 | residual activity | 108
Cc1nc(-c2ccccc2)c(-c2ccncc2)o1 | residual activity | 76.3
COc1cc2ncnc(Nc3ccc(OCc4ccccc4)cc3)c2cc1OC | residual activity | 101
Cn1c2ccccc2c2c3c(c4c5ccccc5n(CCC#N)c4c21)CNC3=O | residual activity | 93.5
COc1ccc(C(=O)Nc2sc3c(c2C(N)=O)CCCC3)cc1OC | residual activity | 97.5
O=C1c2ccccc2-c2nc3nnnn3nc21 | residual activity | 88.6
CC(C)(C)c1cc(C=C(C#N)C#N)cc(Br)c1O | residual activity | 98.3
NC(=O)c1cccc(-c2cc(Nc3ccc(OC(F)(F)F)cc3)ncn2)c1 | residual activity | 92
COc1ccc(S(=O)(=O)N(CCO)c2ccccc2CN(C)C/C=C/c2ccc(Cl)cc2)cc1 | residual activity | 95.1
Cc1cncc2cccc(S(=O)(=O)N3CCCN(C(=O)CN)C[C@H]3C)c12 | residual activity | 110

All values here come from the kinase profiling compilation of Christmann-Franck et al. (2016).
